# SUBJECT_OF_TEST: SPCH_ACTL (Arabidopsis thaliana)
# Construct: SPCH-ACTL (285-364); GST (N, cleaved yes); made in house; host or cells: E. coli BL21
# Sequence (Q700C7 285-364): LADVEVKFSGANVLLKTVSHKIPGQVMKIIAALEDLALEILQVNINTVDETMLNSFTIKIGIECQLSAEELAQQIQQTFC
# METHOD_NOTES: BLI direct binding
# Parameters: species or system A. thaliana
# EXPERIMENTAL_CONTEXT: BLI steady state, read-out: KD (SS)
# From the text: A. thaliana SCRM (1-494), ΔNSPCH (98-364), MUTE (1-202), ΔNFAMA (190-414), MUTEΔC (1-114), MUTER133A_R134A, MUTEE162A_E163A, MUTER133A_R134A_E162A_E163A, SCRM-ACTL (405-494), MUTE-ACTL (114-202), SPCH-ACTL (285-364), FAMA-ACTL (306-414), MUTE_ACTLR133A_R134A, MUTE_ACTLE162A_E163A, MUTE_ACTLR133A_R134A_E162A_E163A were cloned into pGEX-4T-1 vector with an N-terminal GST tag and a thrombin cleavage sequence. For protein expression, the constructs were transformed into E. coli strain BL21. […]
EXPERIMENTAL_ENDPOINT: pKd
# log scale: pKd equals minus log10 of the concentration in mol/L

Note to self: pKd recorded for O=C1C(c2ccccc2)=NC(NS(=O)(=O)c2ccccc2)(c2ccccc2)N1S(=O)(=O)c1ccccc1 (stereo not shown) was 4.02
